# target.or.system: FSHR (Homo sapiens, UniProt P23945)
# Construct: expressed in transfected cells; host or cells: CHO (Cho-FSHR-LUC-1-1-43)
# Sequence (P23945 18-695): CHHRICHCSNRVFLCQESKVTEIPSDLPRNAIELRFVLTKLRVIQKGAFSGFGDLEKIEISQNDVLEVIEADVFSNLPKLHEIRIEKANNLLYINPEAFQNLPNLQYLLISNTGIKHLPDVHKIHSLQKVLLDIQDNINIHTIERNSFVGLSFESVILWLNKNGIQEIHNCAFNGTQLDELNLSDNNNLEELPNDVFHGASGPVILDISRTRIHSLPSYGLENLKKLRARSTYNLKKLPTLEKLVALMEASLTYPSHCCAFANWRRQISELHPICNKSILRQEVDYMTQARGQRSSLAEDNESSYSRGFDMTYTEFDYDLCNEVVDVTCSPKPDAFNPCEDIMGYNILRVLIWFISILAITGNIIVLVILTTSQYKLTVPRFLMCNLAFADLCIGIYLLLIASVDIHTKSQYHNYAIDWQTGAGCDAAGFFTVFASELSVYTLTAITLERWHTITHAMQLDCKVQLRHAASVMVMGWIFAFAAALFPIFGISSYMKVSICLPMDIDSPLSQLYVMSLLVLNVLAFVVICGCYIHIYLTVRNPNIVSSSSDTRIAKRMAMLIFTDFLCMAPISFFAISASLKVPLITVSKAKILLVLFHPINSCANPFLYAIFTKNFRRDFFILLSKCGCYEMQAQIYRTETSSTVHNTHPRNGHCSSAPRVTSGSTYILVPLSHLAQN
# experimental.protocol: EC50 of cyclic AMP production in CHO FSHR cells + EC20 FSH (Assay A)
# Type: cell-based
# assay.conditions: CHO FSHR cells + EC20 FSH, cAMP HTRF; read-out: Assay A: EC50 of cyclic AMP production
measure.name: EC50

The following compounds have reported results that may help.
C=CCn1cc(-c2cc3c(cc2OC)OCc2c(C(=O)N4CCOCC4(C)C)nn(-c4ccsc4)c2-3)cn1; < 0.1 µM
[2H]C([2H])([2H])OC1(CN(C(=O)c2nn(-c3ccsc3)c3c2COc2cc(OC)c(-c4ccn(C)n4)cc2-3)C([2H])([2H])[2H])COC1; 0.1 to 1 µM
COc1cc2c(cc1-c1cscn1)-c1c(c(C(=O)N(C)C(C)(C)C)nn1-c1ccsc1)CO2; < 0.1 µM
[2H]C([2H])([2H])N(CCNC(C)=O)C(=O)c1nn(-c2ccsc2)c2c1COc1cc(OC)c(C=C(C)C)cc1-2; 0.1 to 1 µM
COc1cc2c(cc1-c1cn(C)nn1)-c1c(c(C(=O)N(C)C(C)(C)C)nn1-c1ccsc1)CO2; < 0.1 µM
COc1cc2c(cc1C=C(C)C)-c1c(c(C(=O)NCCNC(C)=O)nn1-c1ccsc1)CO2; 1 to 5 µM
COc1cc2c(cc1-c1c[nH]nc1C)-c1c(c(C(=O)NC3CCOC3)nn1-c1ccsc1)CO2 (centres unmarked); 1 to 5 µM
COc1cc2c(cc1-c1ccnn1C)-c1c(c(C(=O)N3CCOCC3(C)C)nn1-c1ccsc1)CO2; < 0.1 µM
COc1cc2c(cc1-c1ccn(C)c1)-c1c(c(C(=O)NC3(CCO)COC3)nn1-c1ccsc1)CO2; < 0.1 µM
[2H]C([2H])([2H])N(CCN1CCOC1=O)C(=O)c1nn(-c2ccsc2)c2c1COc1cc(OC)c(CC(C)C)cc1-2; < 0.1 µM

Query: For the compound shown here, COc1cc2c(cc1C1=CCCCO1)-c1c(c(C(=O)N(C)C(C)(C)C)nn1-c1ccsc1)CO2 , give the reported EC50.
Reply: < 0.1 µM

Query: For the compound shown here, COc1cc2c(cc1-c1ccn(C)n1)-c1c(c(C(=O)N3CCOCC3C(F)(F)F)nn1-c1ccsc1)CO2 (centres unmarked) , give the reported EC50.
Reply: < 0.1 µM

Query: For the compound shown here, COc1cc2c(cc1-c1ccn(C)c1)-c1c(c(C(=O)N[C@H]3CC[C@@H](O)C3)nn1-c1ccsc1)CO2 , give the reported EC50.
Reply: > 5 µM

Query: For the compound shown here, COc1cc2c(cc1C1=CCCC1)-c1c(c(C(=O)N(C)C(C)(C)C)nn1-c1ccsc1)CO2 , give the reported EC50.
Reply: < 0.1 µM

Query: For the compound shown here, COc1cc2c(cc1-c1cn(C)cn1)-c1c(c(C(=O)N(C)C(C)(C)C)nn1-c1ccsc1)CO2 , give the reported EC50.
Reply: < 0.1 µM

Query: For the compound shown here, COC(=O)C1CCCN(C(=O)c2nn(-c3ccsc3)c3c2COc2cc(OC)c(OC(C)C)cc2-3)CC1 (centres unmarked) , give the reported EC50.
Reply: < 0.1 µM

Query: For the compound shown here, [2H]C([2H])([2H])OCC(C)(C)NC(=O)c1nn(-c2ccsc2)c2c1COc1cc(OC)c(C=C(C)C)cc1-2 , give the reported EC50.
Reply: 0.1 to 1 µM
